Please respond with reported CC50 for every item in the list.
experimentalProtocol: Cytotoxicity against HEL
Format: cell-based
assayConditions: human, HEL cells
Answer with a number only, understood to be in µg/mL.

Exam item: Tell me the measured CC50 of C/C(=N\NC(=O)COc1cccc2ccccc12)c1ccc(C#N)cc1Br , please.
Marked response: 12.7

Exam item: Okay, and O=C(COc1cccc2ccccc12)N/N=C/c1ccccc1Br ?
Marked response: 100

Exam item: Okay, and O=C(COc1cccc2ccccc12)N/N=C/c1cccc(O)c1 ?
Marked response: 62.7

Exam item: Okay, and C/C(=N\NC(=O)COc1cccc2ccccc12)c1ccc(Br)cc1 ?
Marked response: 15.3

Exam item: Okay, and Nc1ccn(C[C@@H](CO)OCP(=O)(O)O)c(=O)n1.O.O [CIDOFOVIR] ?
Marked response: 35.4

Exam item: Okay, and O=C(COc1cccc2ccccc12)N/N=C/c1ccc([N+](=O)[O-])cc1 ?
Marked response: 14.2

Exam item: Okay, and O=C(COc1cccc2ccccc12)N/N=C/C=C/c1ccccc1 ?
Marked response: 100

Exam item: Okay, and O=C(COc1cccc2ccccc12)N/N=C/c1ccccc1 ?
Marked response: 64.5

Exam item: Okay, and C/C(=N\NC(=O)COc1cccc2ccccc12)c1ccccc1 ?
Marked response: 20

Exam item: Okay, and C/C(=N\NC(=O)COc1cccc2ccccc12)c1ccc(O)cc1 ?
Marked response: 11.1

Exam item: Okay, and O=C(COc1cccc2ccccc12)N/N=C/c1c(O)ccc2ccccc12 ?
Marked response: 1.94

Exam item: Okay, and C/C(=N\NC(=O)COc1cccc2ccccc12)c1ccccc1Br ?
Marked response: 16.2

Exam item: Okay, and COc1ccc(/C=N/NC(=O)COc2cccc3ccccc23)cc1 ?
Marked response: 100

Exam item: Okay, and O=C(COc1cccc2ccccc12)N/N=C/c1ccc(Cl)cc1 ?
Marked response: 100

###

System: Aspergillus niger
experimentalProtocol: Antimicrobial activity against Aspergillus niger after 7 days by serial dilution method
Type: functional
Please respond with reported -logMIC for every item in the list.
Answer with a bare number; do not write a unit.

Exam item: Tell me the measured -logMIC of CCOc1ccc(/C=N/NC(=O)COc2cccc3ccccc23)cc1O , please.
Marked response: 1.46

Exam item: Okay, and O=C(COc1cccc2ccccc12)N/N=C/c1ccc(Br)cc1 ?
Marked response: 0.58

Exam item: Okay, and C/C(=N\NC(=O)COc1cccc2ccccc12)c1ccc(O)cc1O ?
Marked response: 1.45

Exam item: Okay, and O=C(COc1cccc2ccccc12)N/N=C/c1cccc(O)c1 ?
Marked response: 1.41

Exam item: Okay, and COc1ccc(OC)c(/C=N/NC(=O)COc2cccc3ccccc23)c1 ?
Marked response: 1.46

Exam item: Okay, and C/C(=N\NC(=O)COc1cccc2ccccc12)c1ccccc1O ?
Marked response: 0.82

Exam item: Okay, and C/C(=N\NC(=O)COc1cccc2ccccc12)c1cccc([N+](=O)[O-])c1 ?
Marked response: 1.46

Exam item: Okay, and O=C(COc1cccc2ccccc12)N/N=C/c1ccccc1O ?
Marked response: 1.11

Exam item: Okay, and Cc1ccc(/C=N/NC(=O)COc2cccc3ccccc23)cc1 ?
Marked response: 0.82

Exam item: Okay, and COc1ccc(/C=N/NC(=O)COc2cccc3ccccc23)cc1O ?
Marked response: 1.15

Exam item: Okay, and C/C(=N\NC(=O)COc1cccc2ccccc12)c1ccc(Br)cc1 ?
Marked response: 0.6

Exam item: Okay, and O=C(COc1cccc2ccccc12)N/N=C/c1cccc([N+](=O)[O-])c1 ?
Marked response: 0.84

Exam item: Okay, and O=C(COc1cccc2ccccc12)N/N=C/c1c[nH]c2ccccc12 ?
Marked response: 0.84

Exam item: Okay, and C/C(=N\NC(=O)COc1cccc2ccccc12)c1ccc(C#N)cc1Br ?
Marked response: 1.53

Exam item: Okay, and NNC(=O)COc1ccc2ccccc2c1 [2-NAPHTHOXY ACETIC ACID HYDRAZIDE] ?
Marked response: 0.64

Exam item: Okay, and O=C(COc1cccc2ccccc12)N/N=C/c1ccc(Cl)cc1 ?
Marked response: 0.53

Exam item: Okay, and C/C(=N\NC(=O)COc1cccc2ccccc12)c1ccc(Cl)cc1 ?
Marked response: 0.85

Exam item: Okay, and O=C(COc1cccc2ccccc12)N/N=C/c1ccccc1[N+](=O)[O-] ?
Marked response: 1.45

Exam item: Okay, and COc1cc(/C=N/NC(=O)COc2cccc3ccccc23)cc(OC)c1O ?
Marked response: 1.48

Exam item: Okay, and C/C(=N\NC(=O)COc1cccc2ccccc12)c1ccc([N+](=O)[O-])cc1 ?
Marked response: 0.86

Exam item: Okay, and O=C(COc1cccc2ccccc12)N/N=C/c1ccccc1 ?
Marked response: 0.78

Exam item: Okay, and COc1cc(/C=N/NC(=O)COc2cccc3ccccc23)cc(OC)c1OC ?
Marked response: 1.5

Exam item: Okay, and C/C(=N\NC(=O)COc1cccc2ccccc12)c1ccccc1 ?
Marked response: 0.82

###

Please respond with reported MCC for every item in the list.
experimentalProtocol: Cytotoxicity against HEL assessed as minimum concentration required to cause morphological changes
Assay type: cell-based
assayConditions: human, HEL cells
Answer with a number only, understood to be in µg/mL.

Exam item: Tell me the measured MCC of C/C(=N\NC(=O)COc1cccc2ccccc12)c1ccccc1 , please.
Marked response: 20

Exam item: Okay, and O=C(COc1cccc2ccccc12)N/N=C/c1ccc(Cl)cc1 ?
Marked response: 100

Exam item: Okay, and C/C(=N\NC(=O)COc1cccc2ccccc12)c1ccc([N+](=O)[O-])cc1 ?
Marked response: 100

Exam item: Okay, and C/C(=N\NC(=O)COc1cccc2ccccc12)c1ccc(O)cc1 ?
Marked response: 20

Exam item: Okay, and COc1ccc(/C=N/NC(=O)COc2cccc3ccccc23)cc1O ?
Marked response: 100

Exam item: Okay, and C/C(=N\NC(=O)COc1cccc2ccccc12)c1ccc(Br)cc1 ?
Marked response: 20

Exam item: Okay, and O=C(COc1cccc2ccccc12)N/N=C/c1ccccc1Cl ?
Marked response: 100

Exam item: Okay, and O=C(COc1cccc2ccccc12)N/N=C/c1c(O)ccc2ccccc12 ?
Marked response: 4

Exam item: Okay, and O=C(COc1cccc2ccccc12)N/N=C/c1cccc(O)c1 ?
Marked response: 100

Exam item: Okay, and O=C(COc1cccc2ccccc12)N/N=C/c1ccccc1 ?
Marked response: 100

Exam item: Okay, and O=C(COc1cccc2ccccc12)N/N=C/c1ccc(O)cc1 ?
Marked response: 20

Exam item: Okay, and COc1cc(/C=N/NC(=O)COc2cccc3ccccc23)cc(OC)c1O ?
Marked response: 100

Exam item: Okay, and O=C(COc1cccc2ccccc12)N/N=C/C=C/c1ccccc1 ?
Marked response: 100

Exam item: Okay, and O=C(COc1cccc2ccccc12)N/N=C/c1ccccc1[N+](=O)[O-] ?
Marked response: 20

Exam item: Okay, and O=C(COc1cccc2ccccc12)N/N=C/c1c[nH]c2ccccc12 ?
Marked response: 100

Exam item: Okay, and C/C(=N\NC(=O)COc1cccc2ccccc12)c1cccc([N+](=O)[O-])c1 ?
Marked response: 20

###

Test system: Aspergillus niger
experimentalProtocol: Antimicrobial activity against Aspergillus niger after 7 days by serial dilution method
Assay type: functional
measuredQuantity: -logMIC
Answer with a bare number; do not write a unit.

Exam item: Tell me the measured -logMIC of O=C(COc1cccc2ccccc12)N/N=C/c1ccc(F)cc1 , please.
Marked response: 0.81

Exam item: Okay, and O=C(COc1cccc2ccccc12)N/N=C/c1ccccc1Br ?
Marked response: 0.88

Exam item: Okay, and COc1ccc(/C=N/NC(=O)COc2cccc3ccccc23)cc1OC ?
Marked response: 1.46

Exam item: Okay, and O=C(COc1cccc2ccccc12)N/N=C/c1ccc([N+](=O)[O-])cc1 ?
Marked response: 0.54

Exam item: Okay, and O=C(COc1cccc2ccccc12)N/N=C/c1ccc(O)cc1 ?
Marked response: 1.11

Exam item: Okay, and COc1ccc(/C=N/NC(=O)COc2cccc3ccccc23)cc1 ?
Marked response: 0.82

Exam item: Okay, and O=C(COc1cccc2ccccc12)N/N=C/c1cccc(Cl)c1 ?
Marked response: 0.53

Exam item: Okay, and O=C(COc1cccc2ccccc12)N/N=C/C=C/c1ccccc1 ?
Marked response: 0.82

Exam item: Okay, and C/C(=N\NC(=O)COc1cccc2ccccc12)c1ccc(O)cc1 ?
Marked response: 1.43

Exam item: Okay, and OC(Cn1cncn1)(Cn1cncn1)c1ccc(F)cc1F [FLUCONAZOLE] ?
Marked response: 2.64

Exam item: Okay, and CSc1ccc(/C=N/NC(=O)COc2cccc3ccccc23)cc1 ?
Marked response: 0.54

Exam item: Okay, and C/C(=N\NC(=O)COc1cccc2ccccc12)c1ccccc1Br ?
Marked response: 1.5

Exam item: Okay, and O=C(COc1cccc2ccccc12)N/N=C/c1c(O)ccc2ccccc12 ?
Marked response: 0.87

Exam item: Okay, and O=C(COc1cccc2ccccc12)N/N=C/c1ccccc1Cl ?
Marked response: 0.83

Exam item: Okay, and O=C(COc1cccc2ccccc12)N/N=C/c1cccc(Br)c1 ?
Marked response: 0.58
